Ref: PubChem BioAssay

Experiment: inhibitors of TNFa-induced NFkB p65 translocation, primary screen, imaging, HUVEC, MLSMR starter and 10KST1 sets (AID 438);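 also: compound added about 3h40 before a 20 min TNFalpha stimulation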
Conditions: HUVEC TNFa-induced p65 nuclear translocation; measured here: nuclei count (cytotoxicity indicator), at 2.08 µM
recorded.endpoint: cell count

Cc1cc(C(F)(F)F)nn1Cc1ccc(C(=O)NCc2ccco2)o1 :: 597
N#Cc1c(/N=C/c2cccs2)sc2c1CCCCC2 :: 636
CCN(CC)CCOC(=O)c1ccc(NC(=O)COc2cc(=O)n(CC)c3ccccc23)cc1 :: 386
Cc1nn(C)c(C)c1NC(=O)CCSc1nc(-c2ccco2)cc(C(F)(F)F)n1 :: 491
CC1CN(C(=O)CSc2nnc(-c3ccncc3)n2-c2ccccc2)CC(C)O1 (stereo not drawn) :: 447

Now consider the entry below.
What does the record list as cell count for `COc1ccccc1N1CCN(Cc2nc(N)nc(Nc3ccc(C)c(Cl)c3)n2)CC1` ?
467

----------
Assay: inhibitors of TNFa-induced NFkB p65 translocation, primary screen, imaging, HUVEC, MLSMR starter and 10KST1 sets (AID 438);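 also: compound added about 3h40 before a 20 min TNFalpha stimulation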
Conditions: HUVEC TNFa-induced p65 nuclear translocation; measured here: nuclei count (cytotoxicity indicator), at 2.08 µM
cell count by entry:
Respond using a number only.

What does the record list as cell count for `O=C(COc1ccccc1)N1CCN(c2ncnc3c2cnn3-c2ccccc2)CC1` ?
476

----------
Biological target: Alpha-2C adrenergic receptor (Homo sapiens)
Assay: compounds altering alpha2C-coupled GIRK flux – cell-based, HEK293 alpha2C/GIRK1/2, thallium flux, primary screen (AID 624);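 also: slope of fluorescence ratio to pre-addition baseline per second over 15 to 24 s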
Conditions: thallium flux BTC fluorescence, at 10 µM, actives lie on both sides
slope by entry:
Respond using a number only.

Cc1nc2ccccc2c2oc(C(=O)N3CCN(C(=O)c4ccco4)CC3)cc12 :: 0.00761

What does the record list as slope for `O=C(NCc1cccs1)c1cc2c(s1)-c1ccccc1OC2` ?
0.00728

What does the record list as slope for `O=C(Nc1ccc(OC(=O)c2ccco2)cc1)c1ccco1` ?
0.00563

What does the record list as slope for `CCOC(=O)c1cnc2c(OC)cccc2c1N1CCN(c2ccc(OC)cc2)CC1` ?
0.00543

What does the record list as slope for `COc1cc(C(=O)NCCc2ccc3c(c2)OCCO3)ccc1OCC(=O)N1CCOCC1` ?
0.00507

What does the record list as slope for `CCn1c(=O)c2cc(S(=O)(=O)NCc3ccccc3)ccc2n(CC)c1=O` ?
0.00625

What does the record list as slope for `C/C(Cl)=C/Cn1c(SCc2ccc(Cl)cc2)nc2c1c(=O)[nH]c(=O)n2C` ?
0.00751

What does the record list as slope for `Cc1ccccc1Nc1nc(N)nc(CSCc2c(C)noc2C)n1` ?
0.00597

What does the record list as slope for `CCOC(=O)N1CCN(C(=O)c2c(-c3ccccc3)noc2C)CC1` ?
0.00537

What does the record list as slope for `N/C(=N/O)c1nc(N2CCCCC2)nc(N2CCCCC2)n1` ?
0.00632

What does the record list as slope for `O=C(Nc1ccc(Br)c2cccnc12)c1ccc(Cn2cc(Cl)cn2)o1` ?
0.00614

----------
Target: Voltage-gated potassium channel subunit beta-2 (Rattus norvegicus) (UniProt P62483)
Sequence (P62483 whole entry, looked up): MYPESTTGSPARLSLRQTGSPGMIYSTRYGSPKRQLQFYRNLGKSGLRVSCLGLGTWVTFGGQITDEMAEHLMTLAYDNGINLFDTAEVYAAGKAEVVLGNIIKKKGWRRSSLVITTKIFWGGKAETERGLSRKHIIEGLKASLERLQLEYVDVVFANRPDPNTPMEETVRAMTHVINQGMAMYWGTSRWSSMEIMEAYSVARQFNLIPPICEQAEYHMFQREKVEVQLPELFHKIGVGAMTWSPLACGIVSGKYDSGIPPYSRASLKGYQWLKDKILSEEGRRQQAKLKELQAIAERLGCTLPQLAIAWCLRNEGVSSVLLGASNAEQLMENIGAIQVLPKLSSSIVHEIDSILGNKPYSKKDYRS
Test: enhancers of rat Kvbeta2 NADPH turnover – biochemical, NADPH fluorescence, primary screen (AID 623);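 also: fluorescence intensity change per second fitted from 20 to 320 s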
Conditions: Recombinant KvBeta, NADPH fluorescence decrease slope, 10 min; at 10 µM; stronger effect = lower value
recorded.endpoint: NADPH fluorescence slope
Respond using a number only.

For orientation, consider the following solved cases.
O=C(Nc1ncc2c(n1)CC(c1ccccc1)CC2=O)c1ccco1 (stereo not drawn) :: -5.7e-06
COc1ccc(C(=O)N2CCN(c3nc4cc(C)ccc4cc3C#N)CC2)c(OC)c1 :: -2.2e-05
CC(Sc1nnnn1C)C(=O)Nc1ccc(Oc2ccccc2)cc1 (stereo not drawn) :: -2.8e-05
Cn1c(=O)cc(NCCc2ccccc2)[nH]c1=O :: -0.0001
Cc1cc(=O)n2nc(N3CCCC(C(=O)N4CCN(C)CC4)C3)sc2n1 (stereo not drawn) :: -3.4e-05
Cc1ccc(S(=O)(=O)N2CCOCC2)cc1C(=O)Nc1nc(-c2cccnc2)cs1 :: 2.5e-05
CCOC(=O)N1CCN(C(=O)COc2ccc(Br)cc2Cl)CC1 :: -5.1e-05
Cc1ccccc1-c1nc(CS(=O)(=O)CC(=O)NCc2ccc3c(c2)OCO3)c(C)o1 :: -2.5e-05
Cc1onc(-c2ccccc2)c1C(=O)Nc1sc2c(c1C(N)=O)CCC2 :: -1.9e-05
Cc1cc(C)nc(N2CCC(C(=O)NC3CCCCCC3)CC2)n1 :: 6.6e-06

What does the record list as NADPH fluorescence slope for `CCOC(=O)CN1C(=O)C2(OCCCO2)c2ccccc21` ?
-0.000151

----------
cell count by entry:
Experiment: inhibitors of TNFa-induced NFkB p65 translocation, primary screen, imaging, HUVEC, MLSMR starter and 10KST1 sets (AID 438);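 also: compound added about 3h40 before a 20 min TNFalpha stimulation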
Conditions: HUVEC TNFa-induced p65 nuclear translocation; measured here: nuclei count (cytotoxicity indicator), at 2.08 µM

Fc1cccc(Nc2cc(-n3cccn3)ncn2)c1 :: 553
CCOc1ccc(-c2nc(C#N)c(N3CCN(C)CC3)o2)cc1 :: 447
O=C(Nc1ccc(Cl)c(C(F)(F)F)c1)N1CCCC(O)C1 (stereo unspecified) :: 356
COc1ccc(OC)c(C2C(C(=O)Nc3cccnc3)=C(C)NC3=C2C(=O)CCC3)c1 (stereo unspecified) :: 353
O=C(O)c1c(Cl)c(Cl)c(Cl)c(Cl)c1C(=O)N1CCOCC1 :: 530
O=C(NCCO)c1cc2ccccc2cc1O :: 489

What does the record list as cell count for `c1ccc(Cn2nnc3c(N4CCCCCC4)ncnc32)cc1` ?
525

What does the record list as cell count for `O=C(c1cccnc1)N1CCN(Cc2ccc3c(c2)OCO3)CC1` ?
64

----------
Molecular target: Voltage-gated potassium channel subunit beta-2 (Rattus norvegicus) (UniProt P62483)
Test: inhibitors of rat Kvbeta2 reductase activity – biochemical, NADPH fluorescence, primary screen (AID 622);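 also: slope of raw intensity against log time taken from 70 to 1610 s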
Conditions: recombinant KvBeta, 4-cyanobenzaldehyde reduction, at 10 µM, stronger effect = higher value
Each entry belongs to exactly one class, chosen by where its fluorescence slope falls: lo (below -0.5), med (-0.5 to below -0.4), hi (-0.4 or more)

O=C(Nc1ccc(F)cc1)N(CCCN1CCOCC1)Cc1cc2cc3c(cc2[nH]c1=O)OCO3 :: hi

# next molecule below
Form field 'band' for `Cc1ccccc1-n1c(Cn2c(=O)sc3ccccc32)nnc1SCC(N)=O`
lo

----------
Test: endothelial E-selectin expression blockers – imaging, HUVEC, immunofluorescence, MLSMR starter and 10KST1 sets, primary screen (AID 487);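 also: 100% = median nuclei count of all wells on the same plate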
Details: HUVEC TNFalpha-induced E-selectin immunofluorescence imaging, at 2 µM; measured here: cell number, toxicity
nuclei count by entry:
Write the number in % without appending the unit.

For orientation, consider the following solved cases.
COc1ccc(CC(=O)Nc2c3c(nn2-c2cccc(Cl)c2)CS(=O)C3)cc1 (stereo unspecified) :: 87.6
CCOC(=O)/C=C1\SCC(=O)N1Cc1ccc(Br)cc1 :: 116
Cc1ccc2nc(NCCCN3CCOCC3)c(C=NCCCN3CCOCC3)c(=O)n2c1 :: 141
Cc1ccc2[nH]cc(C(=O)CN3CCC4(CC3)OCCO4)c2c1 :: 122
CC(C)(C)C(=O)NC1CCN(C(=O)N2CCCC2)CC1 :: 118
O=C1C2C3C=CC(C3)C2C(=O)N1c1cccc(N2C(=O)C3C4C=CC(C4)C3C2=O)n1 (stereo unspecified) :: 137

What does the record list as nuclei count for `CCOc1ccc(NCc2nnc(SCC(=O)Nc3cc(C)on3)n2-c2ccccc2OC)cc1` ?
107

----------
Experiment: reduction of polyQ htt aggregates in cells – imaging, exon1htt(103Q)mCFP cells, high-content imaging, primary screen (AID 483);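 also: compound exposure lasted 3 days before fixation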
Settings: exon1htt(103Q)mCFP cell line, aggregate imaging, at 2 µM; stronger effect = higher value
inhibition of aggregation by entry:
Write the number in % without appending the unit.

COC(=O)c1cccc(NC(=O)Cc2coc3cc(OC)ccc23)c1 :: 5.4

What does the record list as inhibition of aggregation for O=C1c2ccccc2C(Nc2cccnc2)N1Cc1ccccc1Cl (centres undefined) ?
-13.6

----------
cell count by entry:
Assay: inhibitors of TNFa-induced NFkB p65 translocation, primary screen, imaging, HUVEC, MLSMR starter and 10KST1 sets (AID 438);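 also: compound added about 3h40 before a 20 min TNFalpha stimulation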
Details: HUVEC TNFa-induced p65 nuclear translocation; measured here: nuclei count (cytotoxicity indicator), at 2.08 µM

O=C(Nc1cccnc1)c1ccc2c(c1)C(=O)N(Cc1cccnc1)C2=O :: 386
CCCCCC1CC(CC(C)C(=O)Nc2nncs2)C(=O)O1 (stereo unspecified) :: 629

What does the record list as cell count for `O=C(O)CN1C(=O)CNC1=O` ?
249

What does the record list as cell count for `COC(=O)CSc1nc2ncc(Cl)cc2[nH]1` ?
542

What does the record list as cell count for `COc1ccc(C(=O)Nc2ccc(S(=O)(=O)Nc3onc(C)c3C)cc2)cc1` ?
501

What does the record list as cell count for `Cc1c(C(=O)N2CCCC2)sc(NC(=O)c2cccs2)c1C#N` ?
706

What does the record list as cell count for `COc1ccc(N2CCN(Cc3cc(=O)oc4cc(C)c(Cl)c(C)c34)CC2)cc1` ?
604

What does the record list as cell count for `Cc1cc(C)c2c(n1)nn1c(N3CCOCC3)cc(C)nc21` ?
503

What does the record list as cell count for `O=c1c(-c2ccccc2)coc2c(CN3CCOCC3)c(O)ccc12` ?
335

What does the record list as cell count for `CCOC(=O)Cc1csc(NC(=O)CN(C)S(=O)(=O)c2ccc3c(c2)CCC(=O)N3)n1` ?
585

What does the record list as cell count for `CN(C)c1ccc(/C=C/c2ccncc2)cc1` ?
311
